System: HCT-15
procedure-text: NCI60 one-dose screen (10 μM), Colon Cancer
Type: cell-based
conditions: Homo sapiens, HCT-15, read-out: Growth percent rate
Catalogue of compounds with associated activity at 10 µM
value-kind: activity at 10 µM (%)

1. CCC12C=CCN3CCC4(c5ccc(OC)cc5N(C)C4C(O)(C(=O)OC)C1O)C32 (stereo not drawn) [Compound 13, 17-desacetylvindoline] : 99.2
2. CC[C@]12C=CCN3CC[C@@]4(c5ccc(OC)cc5N(C)[C@H]4[C@@](O)(C(=O)OC)[C@@H]1OC(=O)CCCN1CCN(C(c4ccc(F)cc4)c4ccc(F)cc4)CC1)[C@@H]32 [Compound 25] : -96.6
3. CCC12C=CCN3CCC4(c5cc(NC(=O)CN6CCN(Cc7ccc(F)cc7)CC6)c(OC)cc5N(C)C4C(O)(C(=O)OC)C1OC(C)=O)C32 (stereo not drawn) [Compound 19] : 95
4. CC[C@]12C=CCN3CC[C@@]4(c5ccc(OC)cc5N(C)[C@H]4[C@@](O)(C(=O)OC)[C@@H]1OC(=O)CCC(=O)N1CCN(C(=O)c4ccco4)CC1)[C@@H]32 [Compound 32] : 100
5. CCC12C=CCN3CCC4(c5cc(NC(=O)CN6CCN(Cc7ccc(C(F)(F)F)cc7)CC6)c(OC)cc5N(C)C4C(O)(C(=O)OC)C1OC(C)=O)C32 (stereo not drawn) [Compound 18] : 49.7
6. CCC12C=CCN3CC[C@@]4(c5ccc(OC)cc5N(C)[C@H]4[C@@](O)(C(=O)OC)[C@@H]1OC(C)=O)[C@@H]32 (stereo partly drawn) [Compound 1, vindoline] : 103

These measurements were taken from paper PMC11277489.
